System: HCT-116
Experiment Notes: NCI tumour cell line growth inhibition, 48 h
Activity calls are given as the source filed them. No stated cut-off is given here; in the data, active = GI50 up to about 1.1 µM and inactive = higher.
Give GI50 for every item shown.

Solved entries (count: 5):
>>> measurement("COc1cc2c(cc1Oc1ccc(OC)c3c1CC1c4c(cc(OC)c(OC)c4-3)CCN1C)CC1c3c(cc(OC)c(OC)c3-2)CCN1C (configuration not stated)")
"1.77 µM (inactive)"
>>> measurement("CC(=O)N1CCC2(C=Nc3ccccc32)CC1")
"> 100 µM (inactive)"
>>> measurement("COC(=O)C1Cc2c([nH]c3ccccc23)[C@H](CC(C)C)N1 (some centres not stated)")
"> 100 µM (inactive)"
>>> measurement("CN(C)C(=O)C(F)(F)C(c1ccc(F)cc1)C1C(=O)N(C)C(=O)N(C)C1=O (configuration not stated)")
"> 100 µM (inactive)"
>>> measurement("CCOC(=O)C1=C(C)NC2=C(C(=O)N(c3ccccc3)C2c2ccccc2)C1c1ccccc1 (configuration not stated)")
"16.9 µM (inactive)"

Kindly give each listed record's GI50.
1. CCC(=N\NC(N)=S)/C(C)=N/O
2. O=C(O)C1CC(c2ccc(F)cc2)=Nc2ccc(F)cc2S1 (configuration not stated)

# output
1: > 100 µM (inactive); 2: > 100 µM (inactive)

---

Tested on: DU-145
Experiment Notes: NCI tumour cell line growth inhibition, 48 h
Calls of active or inactive are those of the source. Rule as the data show it: active = GI50 up to about 1.1 µM and inactive = higher.
Property Name: GI50

>>> measurement("CC(C)(C)OC(=O)NC(Cc1ccccc1)NC(=O)NC(=O)OCc1ccccc1 (stereo not given)")
"87.1 µM (inactive)"
>>> measurement("COc1cc2c(/C=C3/C(=O)Nc4ccc(Cl)cc43)c(Cl)n(Cc3ccccc3)c2cc1C")
"3.9 µM (inactive)"
>>> measurement("COc1cc2c(c(OC3OC(CO)C(O)C(O)C3O)c1)C(=O)CC(c1ccc(O)cc1)O2 (stereo not given)")
"> 100 µM (inactive)"

Please state GI50 for every molecule in the list that follows.
1. C=C1CC[C@H]2C(C)=CC[C@H]3C(=C)C(=O)O[C@@H]3[C@@H]12
2. Cc1ccc(/C=C/C(=N/NC(=O)N/N=C(/C=C/c2ccc(C)cc2)C(C)C)C(C)C)cc1
3. COc1c(C)c(C/C=C(\C)CCCC(C)CCCC(C)CCCC(C)C)c(OC)c2ccccc12 (stereo not given)
4. COc1cc(OC)cc(C(=O)NC2=C(Cl)C(=O)c3ccccc3C2=O)c1
5. CN(C)C(=O)C(F)(F)C(c1ccc(F)cc1)C1C(=O)N(C)C(=O)N(C)C1=O (stereo not given)

# output
1. > 100 µM (inactive)
2. > 10 µM (inactive)
3. > 100 µM (inactive)
4. 4.58 µM (inactive)
5. > 100 µM (inactive)

---

System: MCF7
Experiment Notes: NCI tumour cell line growth inhibition, 48 h
The source made the active and inactive calls. No stated cut-off is given here; in the data, active = GI50 up to about 1.1 µM and inactive = higher.
Pick one and only one: 1 for active, -1 for inactive

Record excerpt, results attached:
>>> cat("O=[N+]([O-])C(C(Cl)=C(Cl)Cl)=C(N1CCCCC1)N1CCCCC1")
-1
>>> cat("COc1cc(C#CC(=O)OC/C=C/c2ccc3c(c2)OCO3)cc(OC)c1OC")
-1
>>> cat("CSc1nc(N)c2c(-c3ccccc3)c3c(nc2n1)CCCC3")
-1
>>> cat("CCCN1CC=C(c2cc(C(=O)OCC)[nH]c2-c2cc(C)no2)C1=O")
-1
>>> cat("CC(C)NC(=O)OCc1c(COC(=O)NC(C)C)n(C)c2c1ccc1cc(Cl)c(Cl)cc12")
-1
>>> cat("COc1ccc(-c2nc(-c3cnccn3)n(C3OC(CO)C(O)C(O)C3O)n2)cc1 (centres undefined)")
-1
>>> cat("O=C(NCC(O)COc1ccccc1)c1ccccc1O (centres undefined)")
-1
>>> cat("Cc1cc(S(=O)(=O)N=C2NCC(C)(C)CN2)c(S)cc1Cl")
-1
>>> cat("CCSc1nnc(Sc2c3ccccc3nc3ccccc23)s1")
-1
>>> cat("COc1cc2c3c4[n+](cc2c(OC)c1OC)CCC4CCC3 (centres undefined)")
-1

# input I would be grateful if you could indicate the recorded call for `Cc1ccc2nc(/C=N/c3ccc(Cl)cc3)cc(C)c2c1` .
# output -1

# input Entry `Nc1c(C(=O)O)nnc2cc(Cl)ccc12` : call = ?
# output -1

# input Test call, this compound: `CC(=O)c1ccc(N2CCN(C3=CC(=O)c4c(O)ccc(O)c4C3=O)CC2)cc1`
# output -1

# input Any idea what this test logged for COc1ccc(C2Oc3ccc(Cl)cc3C=C2[N+](=O)[O-])cc1OC (centres undefined) ?
# output 1

---

Can you tell me GI50 for the items I'm about to list?
Test system: SR
Experiment Notes: NCI tumour cell line growth inhibition, 48 h
Activity calls are given as the source filed them. Cut-off read from the data, not from the text of the source: active = GI50 up to about 1.1 µM and inactive = higher.

>>> measurement("NC(=O)CC[C@H]1C(=O)N=C(N)N1C(=O)OCc1ccccc1")
"> 100 µM (inactive)"

Record GI50 per entry; entries follow.
1. c1ccc(/C(=N/Nc2cnccn2)c2ncccn2)cc1
2. CCCCCCCCCC[C@@H](O)[C@@H]1CC[C@@H]([C@@H]2CC[C@@H]([C@@H](O)CCCCCCCCCC[C@H](O)CC3=CC(C)OC3=O)O2)O1 (stereo not given in full)
3. O=C(Nc1nnc(-c2ccccc2)o1)C(SC(=S)N1CCCC1)c1ccccc1 (stereo not given)
4. C=CC(Br)(CBr)CCC(Br)C(C)(C)Br (stereo not given)

# output
["12.9 µM (inactive)", "2.05 µM (inactive)", "20.1 µM (inactive)", "3.81 µM (inactive)"]

---

Tested on: CAKI-1
Experiment Notes: NCI tumour cell line growth inhibition, 48 h
Calls of active or inactive are those of the source. Rule as the data show it: active = GI50 up to about 1.1 µM and inactive = higher.
Property Name: GI50

>>> measurement("Cc1nc(N)nc(S)c1CCC(=O)O")
"> 100 µM (inactive)"

# map each molecule to its GI50
1. COc1ccc2c(c1)c1c(n2CCN(C)C)-c2cccc(OC)c2CC1
2. CC(=O)N1CCC2(C=Nc3ccccc32)CC1
3. CCc1ccccc1NC(=O)C1=C(C)NC(C)=C(C(=O)Nc2ccccc2CC)C1c1cccc([N+](=O)[O-])c1

# output
["13.1 µM (inactive)", "> 100 µM (inactive)", "43.8 µM (inactive)"]

---

Tested on: UO-31
Experiment Notes: NCI tumour cell line growth inhibition, 48 h
Activity calls are given as the source filed them. Cut-off read from the data, not from the text of the source: active = GI50 up to about 1.1 µM and inactive = higher.
Can you answer with just one of these options? Yes (active), No (inactive)

As a guide, the following entries are already answered.
>>> cat("O=C(O)c1cc2ccccc2c(/N=N/c2ccc(S(=O)(=O)Nc3ccccn3)cc2)c1O")
"No"
>>> cat("Cc1ccc2c(c1)C(O)(c1ccccc1)CCS2 (configuration not stated)")
"No"
>>> cat("Nc1ccc2c(SCCSc3c4ccccc4nc4cc(N)ccc34)c3ccccc3nc2c1")
"No"

# input What was the test verdict on `N#Cc1c(SCc2ccccc2)nc(-c2ccccc2)[nH]c1=S` ?
# output No

# input Which outcome did this test record for the compound `O=C(O)Cn1nnc2c(=O)[nH][nH]c(=O)c21` ?
# output No

# input Recorded test outcome, item `CN1C/C(=C\c2ccccc2[N+](=O)[O-])C(=O)/C(=C/c2ccccc2[N+](=O)[O-])C1`
# output Yes

# input // return assay outcome for CC(NCc1c(O)ccc2c(-c3ccccc3)cc(=O)oc12)C(=O)O (configuration not stated)
# output No

---

Test system: CCRF-CEM
Experiment Notes: NCI tumour cell line growth inhibition, 48 h
Activity calls are given as the source filed them. No stated cut-off is given here; in the data, active = GI50 up to about 1.1 µM and inactive = higher.
Property Name: GI50

>>> measurement("O=C(N/C(=C/c1ccc(Cl)cc1Cl)c1nc2ccccc2s1)c1ccccc1")
"4.72 µM (inactive)"
>>> measurement("Nc1c(C(=O)O)nnc2cc(Cl)ccc12")
"> 100 µM (inactive)"
>>> measurement("NNc1nnc(CCCCCCCCc2nnc(NN)n2N)n1N")
"> 100 µM (inactive)"

Quick batch: GI50 for everything below.
1. COc1ccc(NC(=O)CCc2cc(-c3ccc(O)c(OC)c3)nc(NC#N)n2)cc1
2. COc1ccc(-c2cc(=O)c3c(O)cccc3o2)c(OC)c1OC
3. O=C(O)c1cc2ccccc2c(/N=N/c2ccc(S(=O)(=O)Nc3ccccn3)cc2)c1O
4. O=C(c1ccccc1F)c1c(NCc2ccccc2)c(=O)c1=O
5. CC(C)(C)[Si](C)(C)OCC1OC(n2cnc3c(N)ncnc32)C(O)C1O (stereo not drawn)

# output
1. > 100 µM (inactive)
2. > 100 µM (inactive)
3. > 100 µM (inactive)
4. > 100 µM (inactive)
5. 95.9 µM (inactive)

---

Test system: SN12C
Experiment Notes: NCI tumour cell line growth inhibition, 48 h
Calls of active or inactive are those of the source. Cut-off read from the data, not from the text of the source: active = GI50 up to about 1.1 µM and inactive = higher.
Provide the reported GI50 of each item.

>>> measurement("C=C1CC2(CC(c3ccccc3Cl)OC(c3ccccc3Cl)C2)OC1=O (centres undefined)")
"2.37 µM (inactive)"
>>> measurement("O=C(NC(Nc1ccc(F)c(Cl)c1)(C(F)(F)F)C(F)(F)F)C(C(F)(F)F)C(F)(F)F")
"32.5 µM (inactive)"
>>> measurement("OCc1c2c(cc3c1CC1(C3)Cc3cc4c(c(CO)c3C1)CCC4)CCC2")
"16.9 µM (inactive)"

The following molecules each have a reported value; give each one's GI50.
1. CC1=C(C2=C(C)C(=O)C(=O)c3cc(C)ccc32)c2ccc(C)cc2C(=O)C1=O
2. S=C(S)NCNC(=S)S
3. COc1ccc(C2Oc3ccc(Cl)cc3C=C2[N+](=O)[O-])cc1OC (centres undefined)
4. CC(C)(C)OC(=O)NC(Cc1ccccc1)NC(=O)NC(=O)OCc1ccccc1 (centres undefined)
5. Cc1nn(-c2ccccc2)c(-c2ccccc2[N+](=O)[O-])c1CC#N

# output
0.197 µM (active)
> 100 µM (inactive)
0.871 µM (active)
> 100 µM (inactive)
> 100 µM (inactive)

# input Report GI50 for CC1=CC2=C(C#N)C(=O)OC2(C)C(c2ccccc2)C1 (centres undefined)
# output > 100 µM (inactive)

Source of measurements: ChEMBL document CHEMBL1201862
